Tested on: PCSK9 gene
Test: PCSK9 gRNA/SpCas9 editing in primary cynomolgus hepatocytes (Tables 2, 22)
Type: cell-based, cynomolgus monkey
Conditions: 2500 ng/RNA/mL; SpCas9 mRNA MS002 1:1 by weight
In the oligonucleotide strings, read from the 5' end, every base follows the letter of its sugar. An asterisk marks phosphorothioate; unmarked linkages are phosphodiester. Other units and linkages are bracketed, terminal groups are in braces. A string of capitals states the bases alone. m = 2'-O-methyl; r = 2'-OH (RNA)
Entries and their Cyno Primary Hepatocyte Editing % 2500 values follow.
API: value field is a number in %; no unit string.

Study these solved cases before continuing.
Molecule | Readout unit | Cyno Primary Hepatocyte Editing % 2500
GA179: PCSK9 gRNA; protospacer GAGTGGCGACCTGCTGGAGC (SEQ ID NO: 173) (nucleic acid) guide: mG*mA*mG*rUrGrGrCrGrArCrCrUrGrCrUrGrGrArGrCrGrUrUrUrUrArGrArGrCrUrArGrArArArUrArGrCrArArGrUrUrArArArArUrArArGrGrCrUrArGrUrCrCrGrUrUrArUrCrArArCrUrUrGrArArArArArGrUrGrGrCrArCrCrGrArGrUrCrGrGrUrGrCrU*mU*mU*mU | % | 12.94
GA164: PCSK9 gRNA; protospacer GTCCTCGTCCTCCTGCGCAC (SEQ ID NO: 158) (nucleic acid, sugars from the 5' end m3 r94 m3, linkages s3 o93 s3 (s phosphorothioate, o phosphodiester), T or U not given here) guide: GUCCUCGUCCUCCUGCGCACGUUUUAGAGCUAGAAAUAGCAAGUUAAAAUAAGGCUAGUCCGUUAUCAACUUGAAAAAGUGGCACCGAGUCGGUGCUUUU | % | 34.89

# input Which Cyno Primary Hepatocyte Editing % 2500 value is on record for GA207: PCSK9 gRNA; protospacer GGAAATCGAGGGCAGGGTCA (SEQ ID NO: 201) (nucleic acid, sugars from the 5' end m3 r94 m3, linkages s3 o93 s3 (s phosphorothioate, o phosphodiester), T or U not given here) guide: GGAAAUCGAGGGCAGGGUCAGUUUUAGAGCUAGAAAUAGCAAGUUAAAAUAAGGCUAGUCCGUUAUCAACUUGAAAAAGUGGCACCGAGUCGGUGCUUUU ?
# output 19.16
